# Test system: Sprague-Dawley male rats
# RUN DESCRIPTION: diuretic effect: urine volume in rats after intraperitoneal injection
# Format: in vivo
# CONDITION SET: 2 mg/kg intraperitoneally; 6 rats; 10 ml water by gastric tube; saline control 1.1
QUANTITY NAME: Mean Cumulative Volume of Urine, 0-1 hours (mL)
One number for each entry, in mL.

Guide cases for Mean Cumulative Volume of Urine, 0-1 hours, answers given:
MOLECULE | RESULT VALUE
Nc1nc(CC(=O)O)cn1-c1c(Cl)cccc1Cl [Compound Ia] | 2.6
CCOC(=O)Cc1c[nH]c(Nc2c(Cl)cccc2Cl)n1 [Compound IIb] | 3.4
O=C(O)Cc1c[nH]c(Nc2c(Cl)cccc2Cl)n1 [Compound IIa] | 1.3

Consider the additional molecule presented here.
Entry CCOC(=O)Cc1cn(-c2c(Cl)cccc2Cl)c(N)n1 [Compound Ib] ; Mean Cumulative Volume of Urine, 0-1 hours = 2.3

----------
# Tested on: Sprague-Dawley male rats
# RUN DESCRIPTION: diuretic effect: urine volume in rats after intraperitoneal injection
# Type: in vivo
# CONDITION SET: 2 mg/kg intraperitoneally; 6 rats; 10 ml water by gastric tube; saline control 13.5
For each entry below, report its Mean Cumulative Volume of Urine, 0-5 hours value.
Give bare numbers, in mL.

SMILES INPUT | RESULT VALUE
CCOC(=O)Cc1cn(-c2c(Cl)cccc2Cl)c(N)n1 | 15.7
Nc1nc(CC(=O)O)cn1-c1c(Cl)cccc1Cl | 16.4
CCOC(=O)Cc1c[nH]c(Nc2c(Cl)cccc2Cl)n1 | 14.4

Consider the additional compound presented here.
Entry O=C(O)Cc1c[nH]c(Nc2c(Cl)cccc2Cl)n1 ; Mean Cumulative Volume of Urine, 0-5 hours = 14.9

Sourced from patent US4275072A
